molecular target: AMP-activated protein kinase, AMPK (Homo sapiens) (UniProt P54646+O43741+P54619+Q9UGJ0+Q9Y478+Q13131+Q9UGI9); assay: AMP-dependent Kinase enzyme assay. An in vitro enzyme assay that detects ADP turnover that is directly proportional to AMPK activity. This uses naive AMPK that is activated during the assay with MK-8722; type: functional; design: scale not given: direction of the effect not stated beside the values; settings: 30 µM
Below is a list of entries, each paired with its recorded Percent Effect value.
Write it as a number; the unit % goes unstated.

{"compound": "Cc1cnc(N2CCC3(CCCN(c4ccc(C)nn4)C3)C2)nc1 (stereo not given)", "Percent Effect, %": 1.6}
{"compound": "Cc1nn(C)c(N2CCOCC2)c1CNC(C)c1ccco1 (stereo not given)", "Percent Effect, %": 131}
{"compound": "CC(C)OCc1ccc(CNC(=O)CC(F)(F)F)cc1", "Percent Effect, %": -5.14}
{"compound": "O=C(Nc1cccc(OCc2cccc(F)c2)c1)C1COCCO1 (stereo not given)", "Percent Effect, %": 0.056}
{"compound": "Cn1ncc2c(NCCC34CCCN3CCC4)nc(C3CCCC3)nc21", "Percent Effect, %": 0.214}

// returns reported Percent Effect for input CCOCC(=O)NC1(c2cccc(Br)c2)CC1
0.838

// returns reported Percent Effect for input O=C(NCCOc1ccc(F)c(F)c1)NCc1cccc(CO)c1
1.53

// returns reported Percent Effect for input O=C(CCc1ccccn1)N1CCc2cc(Cl)cc(Cl)c2C1
5.1

// returns reported Percent Effect for input CC(c1ccc(Cl)cc1)N1CCN(CCNS(C)(=O)=O)CC1 (stereo not given)
-2.79

// returns reported Percent Effect for input CCN1CCCC(CNC(=O)C2(c3cccc(Cl)c3)CC2)C1 (stereo not given)
0.975

====

tested on: Trypanosoma cruzi; assay: Trypanosoma cruzi phosphomannomutase and mannose-1-phosphate guanylyltransferase assay; format: functional; set-up: scale not given: direction of the effect not stated beside the values; settings: 10 µM
readout.name: Percent Effect (%)
Write it as a number; the unit % goes unstated.

// solved cases for Percent Effect follow
{"molecule": "CCC1CN(C(=O)Nc2cnc3c(cnn3C(C)C)c2)CCO1 (stereo unspecified)", "numeric.value": -5.48}
{"molecule": "N#Cc1ccnc(N2CCN(CC(O)c3cccc(F)c3)CC2)c1 (stereo unspecified)", "numeric.value": -3.42}
{"molecule": "Cn1cc(-c2cnc(N3CCOCC3)nc2)cc1C(=O)NCCO", "numeric.value": -8.86}

Percent Effect of CN(Cc1cnn(C)c1)C(=O)c1ccc(=O)n(C)n1 on Trypanosoma cruzi?
5.16

Percent Effect of CC(C)c1nn(C)c(Cl)c1CNCC(O)c1cccc(F)c1 (stereo unspecified) on Trypanosoma cruzi?
7.35

Percent Effect of COc1cccc([C@@H]2CN(C(=O)c3ccc(C)cc3O)C[C@H]2C(=O)O)c1 on Trypanosoma cruzi?
4.59

Percent Effect of O=C(Cc1ccc(O)c(Cl)c1)N1CCCCC1CCn1cccn1 (stereo unspecified) on Trypanosoma cruzi?
3.09

Percent Effect of Cc1occc1C(=O)N1CCCC2(CCN(CCN3CCCC3)C2=O)C1 (stereo unspecified) on Trypanosoma cruzi?
6.79

====

target: AMP-activated protein kinase, AMPK (Homo sapiens) (UniProt P54646+O43741+P54619+Q9UGJ0+Q9Y478+Q13131+Q9UGI9); test: AMP-dependent Kinase enzyme assay. An in vitro enzyme assay that detects ADP turnover that is directly proportional to AMPK activity. This uses naive AMPK that is activated during the assay with MK-8722; type: functional; set-up: scale not given: direction of the effect not stated beside the values; conditions: 30 µM
readout.name: Percent Effect (%)
Write it as a number; the unit % goes unstated.

// solved cases for Percent Effect follow
{"compound": "Cc1ccc(S(=O)(=O)NC2CC2)cc1C", "result.units": "%", "Percent Effect": -6.59}
{"compound": "CC(C)c1nnc2n1CCN(CC(=O)Nc1sccc1C#N)C2", "result.units": "%", "Percent Effect": -4.21}
{"compound": "Cc1nn(C)c(N(C)C)c1CNC1CCOc2c(F)cccc21 (stereo unspecified)", "result.units": "%", "Percent Effect": -2.48}
{"compound": "CCc1cnc(N2C[C@H]3C[C@H](C(=O)N(C)C)[C@@H](C2)O3)nc1", "result.units": "%", "Percent Effect": 0.237}

// returns reported Percent Effect for input CC(C)(C)OC(=O)N1CCCC[C@H]1C(=O)NCc1nccs1
-2.33

// returns reported Percent Effect for input CC(=O)N(Cc1noc(C)n1)C1CCN(Cc2ccncc2Cl)C1 (stereo unspecified)
-1.3

====

target: AMP-activated protein kinase, AMPK (Homo sapiens) (UniProt P54646+O43741+P54619+Q9UGJ0+Q9Y478+Q13131+Q9UGI9); assay: AMP-dependent Kinase enzyme assay. An in vitro enzyme assay that detects ADP turnover that is directly proportional to AMPK activity. This uses naive AMPK that is activated during the assay with MK-8722; assay type: functional; parameters: scale not given: direction of the effect not stated beside the values; conditions: 30 µM
Below is a list of entries, each paired with its recorded Percent Effect value.
Write it as a number; the unit % goes unstated.

// solved cases for Percent Effect follow
{"molecule": "Cc1ccc(C(=O)N(C)Cc2cscn2)c(=O)[nH]1", "result.units": "%", "Percent Effect": -3.33}
{"molecule": "COc1cccc(N2CCN(CC(O)c3cc(C)sc3C)CC2)c1 (stereo unspecified)", "result.units": "%", "Percent Effect": 6.95}
{"molecule": "CN(C)C(=O)[C@H]1C[C@@H]2CCN(C3CCOCC3)C[C@H]2O1", "result.units": "%", "Percent Effect": -1.32}
{"molecule": "Cc1nn(CC(=O)N2CCCCC2Cn2cccn2)c(C)c1Cl (stereo unspecified)", "result.units": "%", "Percent Effect": 0.616}
{"molecule": "CCC(NC(=O)C1CCN(S(C)(=O)=O)CC1)c1ccc(OC)c(C)c1 (stereo unspecified)", "result.units": "%", "Percent Effect": 0.574}

// returns reported Percent Effect for input c1csc(CN2CCn3c(Cn4cncn4)cnc3C2)n1
12.1

====

Biological target: Ubiquitin-activating enzyme e1, putative (Leishmania donovani (strain BPK282A1)) (UniProt E9BSI1)
Sequence (whole entry): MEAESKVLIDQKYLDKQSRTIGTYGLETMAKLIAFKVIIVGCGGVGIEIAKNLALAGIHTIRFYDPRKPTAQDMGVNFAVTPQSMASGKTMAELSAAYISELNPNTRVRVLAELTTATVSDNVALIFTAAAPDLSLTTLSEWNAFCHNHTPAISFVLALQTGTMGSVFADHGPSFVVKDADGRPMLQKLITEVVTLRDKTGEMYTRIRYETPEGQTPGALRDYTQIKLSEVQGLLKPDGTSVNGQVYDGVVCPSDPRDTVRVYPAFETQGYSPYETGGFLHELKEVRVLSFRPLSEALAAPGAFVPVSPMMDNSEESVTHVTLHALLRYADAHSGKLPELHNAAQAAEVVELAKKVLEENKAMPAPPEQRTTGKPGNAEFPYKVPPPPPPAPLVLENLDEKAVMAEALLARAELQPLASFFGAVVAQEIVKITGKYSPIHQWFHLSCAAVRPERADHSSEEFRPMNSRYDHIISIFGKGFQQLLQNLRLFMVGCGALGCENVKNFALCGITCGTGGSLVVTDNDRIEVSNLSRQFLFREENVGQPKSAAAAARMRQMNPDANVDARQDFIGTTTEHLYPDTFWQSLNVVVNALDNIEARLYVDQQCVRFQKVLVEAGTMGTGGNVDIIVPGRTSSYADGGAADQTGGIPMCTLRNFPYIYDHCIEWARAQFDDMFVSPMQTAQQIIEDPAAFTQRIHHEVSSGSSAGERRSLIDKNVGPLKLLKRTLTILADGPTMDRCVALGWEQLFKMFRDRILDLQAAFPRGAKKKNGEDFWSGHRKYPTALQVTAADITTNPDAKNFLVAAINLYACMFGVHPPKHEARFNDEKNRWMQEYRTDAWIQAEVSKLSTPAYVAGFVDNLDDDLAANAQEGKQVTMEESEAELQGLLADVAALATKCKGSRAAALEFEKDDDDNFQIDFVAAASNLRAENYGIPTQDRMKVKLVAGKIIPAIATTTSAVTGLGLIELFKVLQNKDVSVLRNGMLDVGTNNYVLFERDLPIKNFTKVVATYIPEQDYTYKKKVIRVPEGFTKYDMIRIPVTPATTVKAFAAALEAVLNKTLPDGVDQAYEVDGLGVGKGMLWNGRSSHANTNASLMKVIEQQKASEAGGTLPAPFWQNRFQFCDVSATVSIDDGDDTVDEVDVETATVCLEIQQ
Test: Leishmania donovani Ubiquitin Activating Enzyme (LdE1)
Type: functional
Design: scale not given: direction of the effect not stated beside the values
Conditions: 30 µM
Measured potencies and affinities stand elsewhere.
Below is a list of entries, each paired with its recorded Percent Effect value.
Write it as a number; the unit % goes unstated.

// solved cases for Percent Effect follow
{"compound": "CC(C)c1nccn1C1CCCN(C(=O)c2ccc3c(c2)OCO3)C1 (configuration not stated)", "result.units": "%", "numeric.value": -2.6}
{"compound": "COc1cccc(CN(C)C(=O)CSc2ccc3c(c2)OCCO3)c1", "result.units": "%", "numeric.value": -10.5}
{"compound": "CNC(=O)C1CCN(C(=O)CCn2cccn2)CC1", "result.units": "%", "numeric.value": 13.5}
{"compound": "CC(=O)N1CCCN(C(=O)NCCc2cc(Cl)cc(Cl)c2)CC1", "result.units": "%", "numeric.value": -8.86}

// returns reported Percent Effect for input O=C(c1ccco1)N1CCC2(CCOC2)C1 (configuration not stated)
12

// returns reported Percent Effect for input CC(=O)N1CCCC1c1nnc2n1CCCCC2 (configuration not stated)
-32.4

// returns reported Percent Effect for input CCn1cc(C(=O)NCc2csc(Br)c2)cn1
3.8

The reported numbers originate from ChEMBL document CHEMBL3988442.
